Hello, the source for this data is the kinase profiling compilation of Christmann-Franck et al. (2016), in case you need it.

# TESTED_TARGET: PLK1 (human) (UniProt P53350)
# Sequence (P53350 whole entry, looked up): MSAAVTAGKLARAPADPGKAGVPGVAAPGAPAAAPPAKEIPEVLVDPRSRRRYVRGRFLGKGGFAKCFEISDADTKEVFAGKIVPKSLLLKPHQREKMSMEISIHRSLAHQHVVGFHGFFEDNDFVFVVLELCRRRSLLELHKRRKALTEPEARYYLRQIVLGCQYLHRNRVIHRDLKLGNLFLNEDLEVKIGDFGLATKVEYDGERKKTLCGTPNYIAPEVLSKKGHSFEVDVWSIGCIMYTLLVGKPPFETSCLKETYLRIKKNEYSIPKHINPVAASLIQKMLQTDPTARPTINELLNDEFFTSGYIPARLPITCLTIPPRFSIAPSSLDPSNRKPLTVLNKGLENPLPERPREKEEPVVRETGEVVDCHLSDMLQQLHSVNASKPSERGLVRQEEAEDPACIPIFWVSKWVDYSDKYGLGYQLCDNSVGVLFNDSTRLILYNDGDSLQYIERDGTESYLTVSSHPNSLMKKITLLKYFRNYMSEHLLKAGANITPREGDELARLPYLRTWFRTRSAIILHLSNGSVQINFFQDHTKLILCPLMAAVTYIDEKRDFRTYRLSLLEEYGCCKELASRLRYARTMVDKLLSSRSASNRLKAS
# ASSAY_TEXT: radiometric filter-binding kinase assay, Kinase HotSpot
# REPORTED_CONDITIONS: compound 0.5 µM; ATP 10 µM
MEASURE: residual activity (%)

[
  {
    "SMILES_STRING": "O=C(c1ccccc1)c1ccc(N2CCOCC2)cc1O",
    "TESTED_TARGET": "PLK1 (human) (UniProt P53350)",
    "MEASURE": "residual activity",
    "NUMBER": 104
  },
  {
    "SMILES_STRING": "COc1cc2c(N3CCN(C(=O)Nc4ccc(OC(C)C)cc4)CC3)ncnc2cc1OCCCN1CCCCC1",
    "TESTED_TARGET": "PLK1 (human) (UniProt P53350)",
    "MEASURE": "residual activity",
    "NUMBER": 101
  },
  {
    "SMILES_STRING": "CCc1nc(-c2ccc(OC)cc2)[nH]c1-c1ccncc1",
    "TESTED_TARGET": "PLK1 (human) (UniProt P53350)",
    "MEASURE": "residual activity",
    "NUMBER": 103
  },
  {
    "SMILES_STRING": "O=C1NC(=O)c2cc(Nc3ccc(F)cc3)c(Nc3ccc(F)cc3)cc21",
    "TESTED_TARGET": "PLK1 (human) (UniProt P53350)",
    "MEASURE": "residual activity",
    "NUMBER": 99.9
  },
  {
    "SMILES_STRING": "COc1cc2c(Nc3ccc(Br)cc3F)ncnc2cc1OCC1CCN(C)CC1",
    "TESTED_TARGET": "PLK1 (human) (UniProt P53350)",
    "MEASURE": "residual activity",
    "NUMBER": 98.5
  },
  {
    "SMILES_STRING": "COc1cc2ncnc(Nc3ccc(O)c(Br)c3)c2cc1OC",
    "TESTED_TARGET": "PLK1 (human) (UniProt P53350)",
    "MEASURE": "residual activity",
    "NUMBER": 98.8
  },
  {
    "SMILES_STRING": "CCOc1cc2ncnc(Nc3cccc(Br)c3)c2cc1OCC",
    "TESTED_TARGET": "PLK1 (human) (UniProt P53350)",
    "MEASURE": "residual activity",
    "NUMBER": 93.6
  },
  {
    "SMILES_STRING": "N/C(=N\\N=C/c1ccc(-c2cccc([N+](=O)[O-])c2)o1)N[N+](=O)[O-]",
    "TESTED_TARGET": "PLK1 (human) (UniProt P53350)",
    "MEASURE": "residual activity",
    "NUMBER": 98.6
  },
  {
    "SMILES_STRING": "COc1cccc(-c2cc(=O)c3ccccc3o2)c1N",
    "TESTED_TARGET": "PLK1 (human) (UniProt P53350)",
    "MEASURE": "residual activity",
    "NUMBER": 88.2
  },
  {
    "SMILES_STRING": "O=c1c(-c2ccc(F)cc2)c(-c2ccncc2)[nH]n1-c1ccc(Cl)cc1",
    "TESTED_TARGET": "PLK1 (human) (UniProt P53350)",
    "MEASURE": "residual activity",
    "NUMBER": 98.3
  },
  {
    "SMILES_STRING": "Nc1ncnc2c1cnn2-c1ccccc1",
    "TESTED_TARGET": "PLK1 (human) (UniProt P53350)",
    "MEASURE": "residual activity",
    "NUMBER": 98.9
  }
]
